Experiment: NCI Yeast Anticancer Drug Screen. Data for the sgs1 mgt1 strain (AID 161);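 also: 0% = growth of cultures given vehicle only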
Details: S. cerevisiae sgs1 mgt1 strain, at 5.0 µM (retest, dose inferred, filed as 0.5), hits give high values
About 79,000 compounds went through this panel and 15% of them were active in at least one assay; those are over-represented in the sample as a whole. Calls of active or inactive are those of the source. Rule as the data show it: active = growth inhibition above about 70%; inactive = the rest.
observable: growth inhibition

Example results:
molecule: CCCCCCCCCCCCCCNCCN
growth inhibition: 53% (inactive)
--
molecule: N#Cc1c(Cl)nsc1-c1ccc([N+](=O)[O-])cc1
growth inhibition: 1% (inactive)
--
molecule: CC1CCC(C)(C)c2cc([N+](=O)[O-])cc([N+](=O)[O-])c21 (stereo unspecified)
growth inhibition: -4% (inactive)
--
molecule: c1cc[c]([Ge]([O]c2cccc3cccnc23)([c]2ccccc2)[c]2ccccc2)cc1
growth inhibition: -3% (inactive)

Task: Provide only the value of recorded growth inhibition for C/C(=N\OS(=O)(=O)O)SC1OC(CO)C(O)C(O)C1O (stereo unspecified)
Result: -1% (inactive)

---

Test: NCI Yeast Anticancer Drug Screen. Data for the mlh1 rad18 strain (AID 175)
Conditions: S. cerevisiae mlh1 rad18 strain growth inhibition; at 50.0 µM (retest, dose inferred, filed as 5.0)
Compounds without any hit were thinned out: in the full panel of roughly 79,000, 15% have a hit. Activity calls are given as the source filed them. No stated cut-off is given here; in the data, active means growth inhibition above about 70%; inactive means the rest.
Hello, when you answer, please use one of the following outcomes: active, inactive

compound: O=[N+]([O-])c1ccc2c(c1)[n+]([O-])c1[nH]c3ccccc3c1[n+]2[O-] (tested in a mixture with another compound)
class: active
--
compound: CSCS(=O)C[C@H](CO)NC(=O)/C=C/c1c(C)[nH]c(=O)[nH]c1=O (stereo partly specified)
class: active
--
compound: Oc1ccc(CNC2CCCCC2)cc1
class: inactive
--
compound: CCC1(CC)COC(C)(C(=O)O)OC1
class: inactive
--
compound: Oc1cccc(NCSc2ccc(Cl)cc2)c1
class: active

We next turn to a different compound, shown below.
Task: State the result this test recorded for CCCCCCCCCN1CCNC1=S .
Result: inactive

---

Assay: NCI Yeast Anticancer Drug Screen. Data for the rad50 strain (AID 155);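 also: 0% = growth of vehicle-only cultures of the same strain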
Conditions: S. cerevisiae rad50 strain growth inhibition; at 50.0 µM (retest, dose inferred, filed as 5.0)
About 79,000 compounds went through this panel and 15% of them were active in at least one assay; those are over-represented in the sample as a whole. The source made the active and inactive calls. No stated cut-off is given here; in the data, active means growth inhibition above about 70%; inactive means the rest.
# valid calls are active, inactive; nothing else

Worked cases, answers included:
molecule: CCCCCC(Oc1ccc(Cl)cc1)C(=O)O (stereo unspecified)
class: active

molecule: CCC[CH2][Sn]([CH2]CCC)([O]C(=O)c1cc(OC)c(OC)cc1OC)[O][Sn]([CH2]CCC)([CH2]CCC)[O]C(=O)c1cc(OC)c(OC)cc1OC
class: active

molecule: O=C1C(Br)=C(C2CCCCC2)C(=O)c2ccccc21
class: active

molecule: COc1ccc(N(C)Sc2ccccc2)cc1
class: inactive

molecule: CCCCC(O)CCCC
class: inactive

Task: Any idea what this test logged for CC[N-]c1nncs1.CC[N-]c1nncs1.CC[N-]c1nncs1.CC[N-]c1nncs1.[Cl][Rh][Cl] ?
Result: active

Task: I would be grateful if you could indicate the recorded call for CC(=O)Nc1ccc(C#N)c2ccccc12 .
Result: inactive

Task: Check the results log: what was the call for CS(=O)(=O)N1C(=O)C2C3CCC(O3)C2C1=O (stereo unspecified) ?
Result: active

Task: Answer briefly: the call reported for C=C(c1ccc2nc(NC(=O)OC)[nH]c2c1)c1cccs1 in this assay.
Result: inactive

Task: What did the test return for c1ccc2[nH]c(CN(CCN(Cc3nc4ccccc4[nH]3)Cc3nc4ccccc4[nH]3)Cc3nc4ccccc4[nH]3)nc2c1 ?
Result: active

Task: Returns: the outcome recorded for CC(=O)/C(=C\c1ccco1)C(=O)Nc1ccccc1 in this assay.
Result: inactive

---

Assay: NCI Yeast Anticancer Drug Screen. Data for the cln2 rad14 strain (AID 165);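 also: 0% = growth equal to vehicle treated cultures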
Conditions: S. cerevisiae cln2 rad14 strain, at 5.0 µM (retest, dose inferred, filed as 0.5), hits give high values
About 79,000 compounds went through this panel and 15% of them were active in at least one assay; those are over-represented in the sample as a whole.
Quick reference: growth inhibition of the listed items.
The reply should contain only the number, in %.

compound: O=C(/C(=N/O)[n+]1ccccc1)c1ccccc1
observable: growth inhibition
recorded.result: -6
--
compound: O=C1c2ccc(Cl)cc2C(=O)c2cc(Cl)ccc21
observable: growth inhibition
recorded.result: -12
--
compound: Cc1cc(Cl)nc2ccc(Cc3ccc4nc(Cl)cc(C)c4c3)cc12
observable: growth inhibition
recorded.result: 3
--
compound: Clc1ccc(-c2nnc(-c3ccccn3)o2)c(Cl)c1
observable: growth inhibition
recorded.result: -2
--
compound: CCc1cccc(CC)c1N=Nc1c(N)nc(N)[nH]c1=O
observable: growth inhibition
recorded.result: 0

Task: Give the value of growth inhibition reported for the following: N#CSC#CCCC#CSC#N
Result: 99

Task: Name the recorded growth inhibition of the compound listed here: CCN(CC)CCOc1ccc(NC(=S)Nc2ccc(OCC(C)C)cc2)cc1
Result: 10

Task: Please indicate growth inhibition recorded for O=C1NC(CSSCC2NC(=O)N(c3ccccc3)C2=O)C(=O)N1c1ccccc1 (stereo not given)
Result: 1

Task: For the compound O=[N+]([O-])c1ccc(/C=c2\sc3scc(-c4ccc([N+](=O)[O-])cc4)[n+]3\c2=C/c2ccc([N+](=O)[O-])cc2)cc1 , give its reported growth inhibition.
Result: 94

Task: Query growth inhibition for Cc1cc(NCCCCCCNc2cc(C)nc3cc(N(C)C)ccc23)c2ccc(N(C)C)cc2n1
Result: 8

---

Test: NCI Yeast Anticancer Drug Screen. Data for the sgs1 mgt1 strain (AID 161);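 also: 0% = growth of cultures given vehicle only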
Settings: S. cerevisiae sgs1 mgt1 strain, at 5.0 µM (retest, dose inferred, filed as 0.5), hits give high values
This is part of a sample that, as a whole, favours compounds with a hit. Of some 79,000 tested, about 15% had one in any assay. Activity calls are given as the source filed them. No stated cut-off is given here; in the data, active means growth inhibition above about 70%; inactive means the rest.
observable: growth inhibition

molecule: CN(C)CCCNCC(=O)Nc1ccc(S(=O)(=O)c2ccc(NC(=O)CNCCCN(C)C)cc2)cc1
growth inhibition: -11% (inactive)
//
molecule: Nc1ccc(SCCCc2c(N)nc(N)nc2N)cc1
growth inhibition: 27% (inactive)
//
molecule: Cc1cc(C)[nH]c(=S)n1.[Pt]
growth inhibition: -2% (inactive)
//
molecule: O=C(O)CCCc1ccc2ccccc2c1
growth inhibition: 10% (inactive)
//
molecule: CC(=O)N1C=C2CCC3c4ccccc4NC3C2CC1 (centres undefined)
growth inhibition: -4% (inactive)

Task: For COC(=O)c1ccc2c(c1)CC1(C2)Cc2ccccc2C1=O (centres undefined) , write its growth inhibition.
Result: -4% (inactive)

Task: Answer with the recorded growth inhibition for the molecule listed here: CCc1cc2c(cc1O)CC[C@@H]1[C@@H]2CC[C@]2(C)[C@@H](O)CC[C@@H]12
Result: -17% (inactive)

Task: Kindly indicate its recorded growth inhibition. Item: CC1=C/C(=C\c2ccc([N+](=O)[O-])o2)C(=O)O1
Result: 93% (active)

Task: Specify measured growth inhibition for O=C1OCC/C1=C1/CCOC1 .
Result: 82% (active)

---

Assay: NCI Yeast Anticancer Drug Screen. Data for the bub3 strain (AID 167)
Conditions: S. cerevisiae bub3 mutant strain, at 5.0 µM (retest, dose inferred, filed as 0.5), hits give high values
The panel holds about 79,000 compounds, 15% with a hit somewhere; the sample as a whole holds those more often.
observable: growth inhibition (%)
Entry rule: numbers only, all in %.

compound: O=C(Nc1ccc(C2=NCCN2)cc1)c1ccc(C(=O)Nc2ccc(C3=NCCN3)cc2)c(Cl)c1
observable: growth inhibition
readout.units: %
recorded.result: 54
--
compound: CCCCN1CCN(c2ccc([N+](=O)[O-])c3no[n+]([O-])c23)CC1
observable: growth inhibition
readout.units: %
recorded.result: 58
--
compound: CCCCC(C)(C)OC(=O)Nc1ccc(Br)cc1
observable: growth inhibition
readout.units: %
recorded.result: -8

// moving on: another record for growth inhibition
Task: Give growth inhibition for O=C(c1ccc([N+](=O)[O-])cc1)c1[nH]c2ccccc2c(=O)c1-c1ccccc1
Result: -2

---

# growth inhibition annotations
Assay: NCI Yeast Anticancer Drug Screen. Data for the sgs1 mgt1 strain (AID 161);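 also: 0% = growth of cultures given vehicle only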
Conditions: S. cerevisiae sgs1 mgt1 strain, at 50.0 µM (retest, dose inferred, filed as 5.0), hits give high values
Protocol: Growth inhibition of yeast strains with defined genetic alterations is measured as a screen for potential anti-cancer activity. Selected strains with alterations in DNA damage repair or cell cycle control were exposed to compounds and growth inhibition was measured relative to vehicle treated controls. The strain used in this assay is sgs1 mgt1
Compounds without any hit were thinned out: in the full panel of roughly 79,000, 15% have a hit.
Respond numerically; units are % and should not be typed.

Before answering, review these 3 worked examples.
molecule: Cc1c[nH]c2c(O)cc3c(c12)[C@H](CCl)CN3C(=O)c1cc2cc(NC(=O)Nc3ccc4[nH]c(C(=O)N5C[C@@H](CCl)c6c5cc(O)c5[nH]cc(C)c65)cc4c3)ccc2[nH]1
growth inhibition (%): 64

molecule: CCCCCCCCCCCC#CCCCCC(=O)O
growth inhibition (%): 96

molecule: C(=C1/CNC/C(=C/c2ccccc2)C1)/c1ccccc1
growth inhibition (%): 96

Moving on to another molecule below.
Task: Supply growth inhibition value. Item: COC1CC(C)(NC(C)=O)C2OC(c3ccccc3)OCC2O1 (centres undefined)
Result: -24
